Source of measurements: patent US20180057581A1

Measured on: T1, Recombinant cynomolgus monkey sgM-CSF (cynomolgus (Macaca fascicularis), UniProt P09603 33-255 (human entry), limits assumed)
T1 construct: used also where only 'cynomolgus M-CSF' is printed (ELISA result, SET); also called cynomolgus sgM-CSF; cyno sgM-CSF
T1 chain: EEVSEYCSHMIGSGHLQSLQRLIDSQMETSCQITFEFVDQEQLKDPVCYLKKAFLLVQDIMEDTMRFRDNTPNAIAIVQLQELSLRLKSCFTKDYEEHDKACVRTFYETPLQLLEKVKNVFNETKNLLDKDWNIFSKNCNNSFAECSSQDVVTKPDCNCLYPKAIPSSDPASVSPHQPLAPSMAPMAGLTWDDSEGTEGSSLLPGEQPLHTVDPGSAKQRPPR
Assay notes: ELISA; note: test concentration or dose not given here
Measurement label: ELISA fluorescence units

>>> observed_measurement("Meriem (format not stated) (antibody, V domains shown) VH: QVQLQQSGPGLVKPSQTLSLTCAISGDSVSTSSAAWNWIRQSPSRGLEWLGRTYYRSKWKKEYAQSVKSRITINPDTSKNQFSLQLNSVTPEDTAVYYCARDRYYYSAFDYWGQGTLVTVSS VL: QSALTQPASVSGSPGQSITISCTGTSSDVGGYNSVSWYQQHPGKAPKLIIYAVSNRPSGVSNRFSGSKSGNTASLTISGLQAEDEADYYCASYDERFTRVFGGGTKLTVLG")
"> 35000 units"
>>> observed_measurement("HeRX1-10G1 (format not stated) (antibody, V domains shown, Prior art antibody) VH: QVQLQESGPGLVKPSQTLSLTCTVSDYSITSDYAWNWIRQFPGKGLEWMGYISYSGSTSYNPSLKSRITISRDTSKNQFSLQLNSVTAADTAVYYCASFDYAHAMDYWGQGTTVTVSS VL: DIVLTQSPAFLSVTPGEKVTFTCQASQSIGTSIHWYQQKTDQAPKLLIKYASESISGIPSRFSGSGSGTDFTLTISSVEAEDAADYYCQQINSWPTTFGGGTKLEIKR")
"> 35000 units"

Here is the next item to consider.
What does the record list as ELISA fluorescence units for Camille (format not stated) (antibody, V domains shown, also called Antibody Camille) VH: QVQLQQSGPGLVKPSQTLSLTCAISGESVSTSSAAWNWIRQSPSRGLEWLGRTYYRSKWKHEYAVSVKSRITINPDTSKNQFSLQLNSVTPEDTAVYYCARDRYYYSAFDYWGQGTLVTVSS VL: QSALTQPASVSGSPGQSITISCTGTSSDVGGYNSVSWYQQHPGKAPKLLIYAVSNRPSGVSNRFSGSKSGNTASLTISGLQAEDEADYYCASYDERFTRVFGGGTKLTVLG ?
> 35000 units
